Where these numbers come from: patent US12274898B2

assay-summary: Solubility test: relative solubility by retention time on analytical HPLC
Type: physicochemical
setup-conditions: HPLC retention times under acidic (0.1% TFA); RP-C18, 5→95% ACN in water over 15 minutes; measure of relative solubility
measured-parameter: Retention time (min)
Please state the figure in min; there is no need to write the unit.

Example compounds with recorded Retention time:
1. COc1cc2c(cc1OCc1cc(O)cc(COc3cc4c(cc3OC)C(=O)N3Cc5ncn(C)c5C[C@H]3C=N4)c1)N=C[C@@H]1Cc3ccccc3CN1C2=O
8.05
2. COc1cc2c(cc1OCc1cc(O)cc(COc3cc4c(cc3OC)C(=O)N3Cc5ncn(C)c5C[C@H]3C=N4)c1)N=C[C@@H]1Cc3c(ncn3C)CN1C2=O
6.50
3. COc1cc2c(cc1OCc1cc(COc3cc4c(cc3OC)C(=O)N3Cc5ncn(C)c5C[C@H]3C=N4)cc(CN(C)C)c1)N=C[C@@H]1Cc3c(ncn3C)CN1C2=O
6.02
4. COc1cc2c(cc1OCc1cc(COc3cc4c(cc3OC)C(=O)N3Cc5ccsc5C[C@H]3C=N4)cc(CN(C)C)c1)N=C[C@@H]1Cc3sccc3CN1C2=O
8.98

Next, consider the following compound.
Looking up COc1cc2c(cc1OCc1cc(O)cc(COc3cc4c(cc3OC)C(=O)N3Cc5ccsc5C[C@H]3C=N4)c1)N=C[C@@H]1Cc3sccc3CN1C2=O , I found its Retention time recorded as 9.75
